src = patent US20260306633A1

System: TNBC BT-549 cells
assay summary: Cell survival / cell inhibition (MTT cell cytotoxicity assay) after 24 h treatment with photosensitizer and/or chemotherapeutic agent, dark or light-irradiated
Assay type: cell-based, human
run parameters: PS 500 nM, dark
observed property: cytotoxicity in the absence of light, PS alone

>  <molecule>
C=Cc1c(C)c2cc3nc(c(CC(=O)OC)c4[nH]c(cc5nc(cc1[nH]2)C(C)=C5CC)c(C)c4C(=O)NCCCCCCNC(=O)CCCC[C@@H]1CCSS1)[C@@H](CCC(=O)OC)[C@@H]3C [CLA, chlorin lipoic acid conjugate]

>  <readout value>
No cytotoxicity

$$$$
>  <molecule>
C=Cc1c(C)c2cc3nc(c4c5[nH]c(cc6nc(cc1[nH]2)C(C)=C6CC)c(C)c5C(=O)[C@@H]4C(=O)OC)[C@@H](CCC(=O)OC)[C@@H]3C [MePheo, methyl pheophorbide, reference compound]

>  <readout value>
No cytotoxicity

$$$$
>  <molecule>
C=Cc1c(C)c2cc3nc(c(CC(=O)OC)c4[nH]c(cc5nc(cc1[nH]2)C(C)=C5CC)c(C)c4C(=O)NCCCCCCNC(=O)c1ccc(C(=C)c2cc4c(cc2C)C(C)(C)CCC4(C)C)cc1)[C@@H](CCC(=O)OC)[C@@H]3C [CBX, chlorin bexarotene conjugate]

>  <readout value>
No cytotoxicity

$$$$

* * *

System: TNBC BT-549 cells
assay summary: Cell survival / cell inhibition (MTT cell cytotoxicity assay) after 24 h treatment with photosensitizer and/or chemotherapeutic agent, dark or light-irradiated
Type: cell-based, human
run parameters: PS 500 nM, dark
Procedure: Human mammary epithelial carcinoma cell lines purchased from the American Type Culture Collection BT-549 (ATCC HTB-122) were cultured according to ATCC protocol. BT-549 cells were grown in RPMI 1640 containing 0.023 IU/mL insulin and supplemented with 10% fetal bovine serum (FBS). Cells were grown to 80-90% confluence in 75-cm^2 culture flasks (Corning) for 4-5 days in a humidified incubator (Fisher Scientific Isotemp) with 5% CO2 at 37° C. […]
observed property: cytotoxicity in the absence of light, PS alone

>  <compound>
C=Cc1c(C)c2cc3nc(c(CC(=O)OC)c4[nH]c(cc5nc(cc1[nH]2)C(C)=C5CC)c(C)c4C(=O)NCCCCCCNC(=O)CCCCC1SCC2NC(=O)NC21)C(CCC(=O)OC)C3C (centres unmarked) [CBTN, chlorin biotin conjugate]

>  <readout value>
No cytotoxicity

$$$$
>  <compound>
C=Cc1c(C)c2cc3nc(c(CC(=O)OC)c4[nH]c(cc5nc(cc1[nH]2)C(C)=C5CC)c(C)c4C(=O)NCCCCCCNC(=O)CCNC(=O)[C@H](O)C(C)(C)CO)[C@@H](CCC(=O)OC)[C@@H]3C [CPA, chlorin pantothenic acid conjugate]

>  <readout value>
No cytotoxicity

$$$$
